Where do these numbers come from? They come from patent US7923465B2.

# target of assay: hCB2 (Homo sapiens, UniProt P34972)
# Sequence (P34972 whole entry): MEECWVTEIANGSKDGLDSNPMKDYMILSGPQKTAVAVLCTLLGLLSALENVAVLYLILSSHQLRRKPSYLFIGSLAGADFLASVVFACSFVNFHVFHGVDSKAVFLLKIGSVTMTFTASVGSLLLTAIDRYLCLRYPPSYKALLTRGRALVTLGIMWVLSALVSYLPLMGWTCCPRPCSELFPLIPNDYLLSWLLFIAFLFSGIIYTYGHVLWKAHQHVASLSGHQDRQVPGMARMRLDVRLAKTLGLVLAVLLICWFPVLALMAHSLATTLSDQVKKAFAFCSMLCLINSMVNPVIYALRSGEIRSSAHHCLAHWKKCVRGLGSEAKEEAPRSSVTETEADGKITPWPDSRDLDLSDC
# test description: In vitro binding assay using hCB2-CHO membranes, [3H]-CP-55,940 displacement (Protocol IV)
# Parameters: expressed in transfected cells; host or cells: CHO (hCB2-CHO, generated in-house)
# stated conditions: hCB2-CHO membranes, [3H]-CP-55,940 displacement
Hi! Just check whether % Displacement Protocol IV is below 20%. Below gives 1.0, equal or above gives 0.0.

// known answers, use as guide
O=C(NN1CCCCC1)c1nn(-c2ccccc2Br)c2c1C1CC3CC(C1)CC2C3 [Example 101] = 1.0
O=C(NC12CC3CC(CC(C3)C1)C2)c1nn(-c2ccc(F)cc2F)c2c1C1CC3CC(C1)CC2C3 [Example 144] = 0.0
C[C@@H](NC(=O)c1nn(-c2ccc(Cl)cc2)c2c1C1CC3CC(C1)CC2C3)c1ccccc1 [Example 118] = 0.0

Then this molecule:
Quick check: does CC1(C)[C@@H]2CC[C@@](C)(C2)[C@@H]1NC(=O)c1nn(-c2ccc(F)cc2F)c2c1C1CC3CC(C1)CC2C3 [Example 145] have % Displacement Protocol IV under 20%?
0.0
